Target: Tubulin (Bos taurus)
Assay: Inhibition of tubulin polymerization of purified bovine brain tubulin
Reported values of IC50 for individual entries
property: IC50 (µM)

{"columns": ["compound", "measurementQualifier", "numericReadout"],
 "data": [
  ["C=CCCC1=N[C@H](/C=C\\CC/C=C/C=C(\\C)CC[C@H](CC=C)OC)CS1", "=", 0.92],
  ["CCCCCCCc1cccc(CC/C=C\\[C@@H]2CSC([C@@H]3C[C@@H]3C)=N2)c1", ">", 50],
  ["C=CC[C@@H](CC/C(C)=C\\C=C\\CC/C=C\\[C@@H]1CSC([C@@H]2C[C@@H]2C)=N1)OC [CURACIN C]", "=", 2.3],
  ["C=CC[C@@H](CC/C(C)=C/C=C/CC/C=C\\[C@H](CSC(=O)[C@@H]1C[C@@H]1C)NC(C)=O)OC", "=", 1.5],
  ["CCC[C@@H](CC/C(C)=C/C=C/CC/C=C\\[C@@H]1CSC([C@@H]2C[C@@H]2C)=N1)OC", "=", 1.2],
  ["C=CC[C@@H](CC/C(C)=C/C=C/CC/C=C\\[C@@H]1CSC([C@@H]2C[C@@H]2C)=N1)OC [CURACIN A]", "=", 0.72],
  ["C=CC[C@H](O)CC/C(C)=C/C=C/CC/C=C\\C1CSC([C@@H]2C[C@@H]2C)=N1 (stereo partly drawn)", "=", 0.87],
  ["C=CC[C@@H](CC/C(C)=C/C=C/CC/C=C\\[C@@H]1CSC([C@@H]2C[C@@H]2C)=N1)OCOC", "=", 0.64]
]}
